Substrate: CC(O)CO
Assay: purified protein
Type: biochemical, Paracoccus denitrificans
Conditions: 100 mM glycine-NaOH pH 10, 2.4 mM NAD+, 30 °C, oxidation
reported.metric: kcat (s⁻¹)
Only the number, expressed in s⁻¹, is required.

Query block: Query (protein): EtgB, NAD-dependent alcohol dehydrogenase (Pden_2367) (enzyme, Paracoccus denitrificans DSM 413, The enzyme holds zinc ions; also called EtgB WT; alcohol dehydrogenase EtgB; source: E. coli BL21 AI, purified (Ni-NTA, desalting, size exclusion on Superdex 200 Increase)) MAKTMKAAVVREFGKPLTIDEVPVPEPGPGMIQVRIQASGVCHTDLHAAEGDWPVKPNPPFIPGHEGVGFVSAVGAGVKHVKEGDRVGVPWLYTACGHCRHCLGGWETLCESQLNTGYSVNGGFADYVVADPNYVGHLPKNVDFLDIAPVLCAGVTVYKGLKVTDTKPGDWVVISGIGGLGHMAVQYAKAMGMNVAAVDIDDEKLALARKLGATVTVNAATEPDPAAAIRKQTDGGAQGVLVTAVGRKAFEQAIGMVARGGTVALNGLPPGDFPLDIFGMVLNGITVRGSIVGTRLDLQESLDFAGDGKVKATVHKAKLEDINNIFGQMHKGQIEGRMVLDMAG ; field requested: kcat
Result block: 3.5
